Attribution: paper doi:10.1101/2021.01.09.426030v4

Test system: BT112
Assay: cells
Parameters: species or system GBM PDCLs
Settings: 72 h, read-out: Erlotinib (IC50 µM)
REPORTED_ENDPOINT: IC50 (µM)
Numbers only, in µM.

Determine from records and report IC50 for C#Cc1cccc(Nc2ncnc3cc(OCCOC)c(OCCOC)cc23)c1 [erlotinib]
18.5
